- measurement protocol: chemical genetic growth profiling, strain panel (AID 1159580);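 also: tested at 20 µM; growth read once vehicle control cultures reached saturation at 30 °C; lower values mean less growth of the strain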
- condition description: S. cerevisiae deletion strains, growth OD, locus YML094W, strain GIM5
In all, about 5,500 compounds went through this assay and about 2,000 (36%) were called active. Roughly 18% stayed inconclusive and do not appear here. Rule as the data show it: active = normalized growth mostly below about 0.91 (no sharp cut-off); inconclusive = no clear call, values can overlap the other calls; inactive = mostly above about 0.92. The list shows a part of the results.
Outcomes you can answer with include only these: active, inactive

*Q* Write down the call the test reported for this compound. Item: `COc1cccc(NC(=S)NCc2ccco2)c1`
*A* inactive

*Q* Write down the call the test reported for this compound. Item: `CCOC(=O)c1csc(N/N=C2/CCCc3ccccc32)n1`
*A* active

*Q* Write down the call the test reported for this compound. Item: `NC(=S)c1ccc2nonc2c1`
*A* inactive

*Q* Write down the call the test reported for this compound. Item: `O=S(=O)(O)c1cccc2cccc(Cl)c12`
*A* inactive

*Q* Write down the call the test reported for this compound. Item: `CCOC(=O)CC1=Nn2c(nnc2-c2cc(Cl)cc(Cl)c2)SC1`
*A* active

*Q* Write down the call the test reported for this compound. Item: `O=C(NC(=S)Nc1ccc(Cl)cc1)c1ccc([N+](=O)[O-])o1`
*A* inactive

*Q* Write down the call the test reported for this compound. Item: `Cc1ccc(S(=O)(=O)/C(C#N)=N\O)cc1`
*A* inactive

*Q* Write down the call the test reported for this compound. Item: `COc1ccc(/C=C(\C#N)c2nc3ccccc3[nH]2)cc1OC`
*A* inactive
